Reference source for all entries: PubChem BioAssay (NCATS)

Test Summary: qHTS of pediatric cancer cell lines to identify multiple opportunities for drug repurposing: Primary screen for A673 cells (AID 1347092); also: nearly all actives have a fitted effect of over 45% in size
Condition Details: A673 Ewing sarcoma viability, CellTiter-Glo ATP luminescence, 48 h; series mostly up to 46 µM
Procedure: Drug repurposing or repositioning has been offered as a strategy for drug development in oncology programs. […] We employed a titration-based paradigm (quantitative high-throughput screening or qHTS), where all compounds were tested at multiple concentrations for their effect on cell viability. […] Shen, M et al. Quantitative high-throughput phenotypic screening of pediatric cancer cell lines identifies multiple opportunities for drug repurposing. […]
Results filed as inconclusive are left out. Calls of active or inactive are those of the source. Calls follow the shape of the dose curve; as a rule, active = well fitted cell-killing curve with a large enough effect; inconclusive = small, poorly fitted or top-dose-only effect; inactive = no such curve, though single readings can be large or run the other way.
Possible outcomes: active, inactive

INSERT INTO assay_data (compound, assigned_category) VALUES
  ('COc1cc2ncn(-c3cc(OCc4ccccc4C(F)(F)F)c(C(N)=O)s3)c2cc1OC', 'active'),
  ('Nc1ccc(C(=O)c2cc3c(ccc4ccccc43)[nH]2)cc1', 'active'),
  ('CC(=O)Nc1sc2c(c1-c1nc3ccccc3s1)CNC2', 'active'),
  ('O=c1[nH]nc(Sc2ncc([N+](=O)[O-])s2)n1-c1ccc2c(c1)OCCO2', 'active'),
  ('C[C@H]1C[C@@H]2[C@@H]([C@@H](O)C[C@@]3(C)[C@H]2CC[C@]3(O)C(=O)CO)[C@@]2(C)C=CC(=O)C=C12', 'inactive'),
  ('C1Cc2[nH]nc(-c3nn[nH]n3)c2C1', 'inactive'),
  ('CC(C)=CCCC(C)=CCCC(C)=CCSc1ccccc1C(=O)O', 'active'),
  ('C[C@@]12O[C@@H](C[C@]1(O)CO)n1c3ccccc3c3c4c(c5c6ccccc6n2c5c31)CNC4=O', 'active'),
  ('CCC[C@H](NC(=O)C(C#N)=Cc1cccc(Br)n1)c1ccccc1', 'active'),
  ('Nc1nc(NCCNc2ncc(-n3ccnc3)c(-c3ccc(Cl)cc3Cl)n2)ccc1[N+](=O)[O-]', 'active'),
  ('Nc1cc(C(F)(F)F)c(-c2cc(N3CCOCC3)nc(N3CCOCC3)n2)cn1', 'active'),
  ('CN1CCN(c2cc(C(=O)Nc3ccc4c(c3)-c3c(c(C(N)=O)nn3-c3ccc(F)cc3)CC4)c(Cl)cn2)CC1', 'active'),
  ('COC(=O)Nc1ccc(-c2nc(N3CCOCC3)c3cnn(C4CCN(Cc5cccnc5)CC4)c3n2)cc1', 'active'),
  ('COc1cc(-c2nn(C3CCC(N4CCN(C(C)=O)CC4)CC3)c3ncnc(N)c23)ccc1NC(=O)c1cc2ccccc2n1C (stereo unspecified)', 'active'),
  ('Cc1cn(-c2cc(NC(=O)c3ccc(C)c(Nc4nccc(-c5cccnc5)n4)c3)cc(C(F)(F)F)c2)cn1', 'inactive'),
  ('CCCCCCCCCC(=O)N[C@@H](Cc1c[nH]c2ccccc12)C(=O)N[C@H](CC(N)=O)C(=O)N[C@@H](CC(=O)O)C(=O)N[C@@H]1C(=O)NCC(=O)N[C@@H](CCCN)C(=O)N[C@@H](CC(=O)O)C(=O)N[C@H](C)C(=O)N[C@@H](CC(=O)O)C(=O)NCC(=O)N[C@H](CO)C(=O)N[C@@H]([C@@H](C)CC(=O)O)C(=O)N[C@@H](CC(=O)c2ccccc2N)C(=O)O[C@@H]1C', 'inactive'),
  ('CN1CC[C@@H](c2c(O)cc(O)c3c(=O)cc(-c4ccccc4Cl)oc23)[C@@H](O)C1', 'active'),
  ('C=CC(=O)Nc1cccc(Oc2nc(Nc3ccc(N4CCN(C)CC4)cc3)ncc2Cl)c1', 'active'),
  ('CN(C)CC=CC(=O)Nc1cc2c(Nc3ccc(F)c(Cl)c3)ncnc2cc1O[C@H]1CCOC1', 'active'),
  ('O=C(Nc1nc2cccc(-c3ccc(CN4CCS(=O)(=O)CC4)cc3)n2n1)C1CC1', 'active'),
  ('COc1cc(=C2C=c3ccccc3=N2)[nH]c1=Cc1[nH]c(C)cc1C', 'active'),
  ('CCN1CCN(CC(=O)Nc2ccc(-c3cccc4c(=O)cc(N5CCOCC5)oc34)c3sc4ccccc4c23)CC1', 'active'),
  ('CCN(CC)CCNC(=O)c1ccc2nc(-c3ccccc3)c(-c3ccc(CN4CCC(n5c(=O)[nH]c6ccccc65)CC4)cc3)nc2c1', 'active'),
  ('C=C1C(=CC=C2CCC[C@]3(C)[C@@H]([C@H](C)C=C[C@H](C)C(C)C)CC[C@@H]23)C[C@@H](O)C[C@@H]1O', 'active'),
  ('Cc1cc(Nc2cc(N3CCN(C)CC3)nc(Sc3ccc(NC(=O)C4CC4)cc3)n2)n[nH]1', 'active'),
  ('COc1cc2c(Oc3ccc4[nH]c(C)cc4c3F)ncnc2cc1OCCCN1CCCC1', 'active'),
  ('Clc1cccc(-n2nnnc2NCc2ccccc2Oc2ccccn2)c1Cl', 'inactive'),
  ('Cc1cnc(Nc2ccc(F)cc2Cl)nc1-c1c[nH]c(C(=O)N[C@H](CO)c2cccc(Cl)c2)c1', 'active'),
  ('Cn1c2ccccc2c2c3c(c4c5ccccc5n(CCC#N)c4c21)CNC3=O', 'active'),
  ('CC(C)c1ccc(Cn2ccc3c4c(N)nc(NC5CC5)nc4ccc32)cc1', 'active'),
  ('Nc1ncnc2c1c(-c1cnc3[nH]ccc3c1)nn2C1CCCC1', 'active');

====

Test Summary: Cell Proliferation Assay against the TMD8 Cell Line (Caspase readout at 8 hrs) (AID 651713);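 as to caspase activation: 0% = DMSO and 100% = 9.2 µM bortezomib caspase signal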
Condition Details: TMD8 lymphoma cells, caspase activation luminescence; series mostly up to 46.1 µM
Records with an inconclusive call do not appear. Activity calls are given as the source filed them. Calls come from the whole dose curve; as a rule, active = well fitted activation curve with a large enough effect; inconclusive = small, poorly fitted or top-dose-only effect, or another doubt; inactive = no such curve, though single readings can be large or run the other way.
Possible outcomes: 1 = active, -1 = inactive

INSERT INTO results (structure_smiles, assigned_category) VALUES
  ('CCN(CC)CCCCNc1ncc2cc(-c3cc(OC)cc(OC)c3)c(NC(=O)NC(C)(C)C)nc2n1', 1),
  ('COc1cc(=C2C=c3ccccc3=N2)[nH]c1=Cc1[nH]c(C)cc1C', -1),
  ('CC(C)(C)c1cc(NC(=O)Nc2ccc(-c3cn4c(n3)sc3cc(OCCN5CCOCC5)ccc34)cc2)no1', -1),
  ('Cc1nc2cnc3ccc(C#Cc4cccnc4)cc3c2n1-c1ccc(C(C)(C)C#N)cc1', 1),
  ('Cc1cn(-c2cc(NC(=O)c3ccc(C)c(Nc4nccc(-c5cccnc5)n4)c3)cc(C(F)(F)F)c2)cn1', -1);

====

Test Summary: Quantitative High-Throughput drug screen in 47 multiple myeloma cell lines against the NCATS MIPE library collection: XG1_PLB cell viability assay (AID 1919866); also: nearly all actives have a fitted effect of over 35% in size
Condition Details: CellTiter-Glo ATP, 48 h; series mostly up to 45.8 µM
Results filed as inconclusive are left out. Active and inactive are the calls of the source. Calls follow the shape of the dose curve; as a rule, active = well fitted cell-killing curve with a large enough effect; inconclusive = small, poorly fitted or top-dose-only effect, or effect the other way; inactive = no such curve, though single readings can be large or run the other way.
Possible outcomes: 1 (yes) (active), 0 (no) (inactive)

INSERT INTO measurements (molecule, assigned_category) VALUES
  ('CC(=O)Nc1nc(C)c(-c2ccc(Cl)c(S(=O)(=O)NCCO)c2)s1', '1 (yes)'),
  ('O=C(O)c1ccc2c(c1)nc(Nc1cccc(Cl)c1)c1ccncc12', '1 (yes)'),
  ('c1cc(-c2cnn3cc(-c4ccc(OCCN5CCCCC5)cc4)cnc23)ccn1', '1 (yes)'),
  ('CC[C@@H]1C(=O)N(C)c2cnc(Nc3ccc(C(=O)NC4CCC(N5CCN(CC6CC6)CC5)CC4)cc3OC)nc2N1C(C)C (some centres undefined)', '1 (yes)'),
  ('Cc1[nH]c2ccccc2c1CCNCc1ccc(C=CC(=O)NO)cc1', '1 (yes)'),
  ('COc1cccc(-c2ccc(NC(=O)C3=C(C(=O)O)CCC3)c(F)c2)c1', '1 (yes)'),
  ('O=C(O)c1ccc2cc(-c3ccc(O)c(C45CC6CC(CC(C6)C4)C5)c3)ccc2c1', '1 (yes)'),
  ('COC(=O)c1ccc2c(C(=Nc3ccc(N(C)C(=O)CN4CCN(C)CC4)cc3)c3ccccc3)c(O)[nH]c2c1', '1 (yes)'),
  ('COc1cc(C(=O)N2CCC(N3CCN(C)CC3)CC2)ccc1Nc1ncc2c(n1)N(C)c1ccccc1C(=O)N2C', '1 (yes)'),
  ('COc1ccc(-n2nc(C(N)=O)c3c2C(=O)N(c2ccc(N4CCCCC4=O)cc2)CC3)cc1', '0 (no)'),
  ('COc1cc2c(NC3CCN(C(C)C)CC3)nc(C3CCCCC3)nc2cc1OCCCN1CCCC1', '1 (yes)'),
  ('COc1cc2c(Oc3ccc(NC(=O)C4(C(=O)Nc5ccc(F)cc5)CC4)cc3F)ccnc2cc1OCCCN1CCOCC1', '1 (yes)'),
  ('CN1CCN(c2cc(C(=O)Nc3ccc4c(c3)-c3c(c(C(N)=O)nn3-c3ccc(F)cc3)CC4)c(Cl)cn2)CC1', '1 (yes)'),
  ('Cc1cc(CN2CCN(c3c(Br)cnc4nc(-c5ccc(N6CCN(C)CC6)cc5)[nH]c34)CC2)no1', '1 (yes)'),
  ('CC1(O)CC(c2nc(-c3ccc4ccc(-c5ccccc5)nc4c3)c3c(N)nccn23)C1 (centres undefined)', '1 (yes)'),
  ('Nc1ccc(C(=O)c2cc3c(ccc4ccccc43)[nH]2)cc1', '1 (yes)'),
  ('C#Cc1cccc(Nc2ncnc3cc(OC)c(OCCCCCCC(=O)NO)cc23)c1', '1 (yes)'),
  ('CCCCOc1c(C(=O)c2c(F)cc(C)cc2F)cnc2n[nH]cc12', '1 (yes)'),
  ('C=CC(=O)Nc1cc2c(Nc3ccc(F)c(Cl)c3)ncnc2cc1OCCCN1CCOCC1', '1 (yes)');
